Below: a set of entries, each annotated with reported growth AUC normalised to DMSO control.
- System: Haemophilus parainfluenzae
- procedure_text: growth AUC normalised to DMSO control (fraction of control); higher = less growth inhibition, active = hit call of the paper
- condition: 20 µM
Counter-ions that a name gives are not always drawn.
Could you respond with only the numeric value?

Nc1nc(=O)c2c([nH]1)NC[C@@H](CNc1ccc(C(=O)N[C@@H](CCC(=O)O)C(=O)O)cc1)N2C=O [Folinic acid calcium salt]: 1
OC(CCN1CCCCC1)(c1ccccc1)C1CCCCC1 (stereo not drawn) [Trihexyphenidyl-D,L hydrochloride]: 1.01

Moving on to another compound below.
Query: Output measured growth AUC normalised to DMSO control for this item: `CC1=C(/C=C/C(C)=C/C=C/C(C)=C\C(=O)O)C(C)(C)CCC1`
Result: 1.02

* * *

- Test system: Haemophilus parainfluenzae
- procedure_text: growth AUC normalised to DMSO control (fraction of control); higher = less growth inhibition, active = hit call of the paper
- condition: 20 µM
Counter-ions that a name gives are not always drawn.
Below is a list of entries, each paired with its recorded growth AUC normalised to DMSO control value.
Write the number on its own, no unit after it.

# count of solved cases: 2
CCCCN1CCCCC1C(=O)Nc1c(C)cccc1C (centres undefined) [Bupivacaine hydrochloride]: 0.967
CCC[C@@H]1C[C@@H](C(=O)N[C@@H]([C@H]2O[C@H](SC)[C@H](O)[C@@H](O)[C@H]2O)[C@@H](C)O)N(C)C1 [Lincomycin hydrochloride]: 0.828

Query: Specify reported growth AUC normalised to DMSO control for the molecule shown: `COc1ccc(NS(=O)(=O)c2ccc(N)cc2)nn1`
Result: 1.04

Query: Give a short answer stating reported growth AUC normalised to DMSO control for CN1C(=O)CCS(=O)(=O)C1c1ccc(Cl)cc1 (centres undefined) .
Result: 1.02

* * *

- Test system: Haemophilus parainfluenzae
- procedure_text: growth AUC normalised to DMSO control (fraction of control); higher = less growth inhibition, active = hit call of the paper
- condition: 20 µM
Structures can show the parent of a compound that is named as a salt.
This listing pairs compounds with measured growth AUC normalised to DMSO control.
// no unit, no text: just the number

As a guide, the following entries are already answered.
CCN1CCCC1CNC(=O)c1cc(S(N)(=O)=O)ccc1OC (stereo not drawn) [Sulpiride]: 1.02
CN1C(=O)CC(c2ccccc2)C1=O (stereo not drawn) [Phensuximide]: 1.01
CCCN[C@H]1CCc2nc(N)sc2C1 [Pramipexole dihydrochloride]: 0.985
O=P1(N(CCCl)CCCl)NCCCO1 (stereo not drawn) [Cyclophosphamide]: 1.04
C[C@]12CC[C@H](O)C[C@H]1CC[C@@H]1[C@@H]2CC[C@]2(C)[C@@H](C3=CC(=O)OC3)CC[C@]12O [Digitoxigenin]: 1

Query: Consider the compound CN[C@@H]1[C@@H](O)[C@@H](O[C@@H]2[C@@H](O)[C@H](O[C@H]3OC(CN)=CC[C@H]3N)[C@@H](N)C[C@H]2N)OC[C@]1(C)O [Sisomicin sulfate] tested on Haemophilus parainfluenzae; state its growth AUC normalised to DMSO control.
Result: 0.864

Query: Report measured growth AUC normalised to DMSO control on Haemophilus parainfluenzae; entry: CC(=O)[C@H]1CC[C@H]2[C@@H]3CC=C4C[C@@H](O)CC[C@]4(C)[C@H]3CC[C@]12C [Pregnenolone]
Result: 1.01

Query: Lab note: Haemophilus parainfluenzae assay, enter growth AUC normalised to DMSO control for CCN(CC)CCNC(=O)c1cc(Cl)c(N)cc1OC [Metoclopramide monohydrochloride] here
Result: 0.991

Query: Give measured growth AUC normalised to DMSO control for CC[N+]1(C)CCCC(OC(=O)C(O)(c2ccccc2)c2ccccc2)C1 (stereo not drawn) [Pipenzolate bromide] (Haemophilus parainfluenzae).
Result: 0.996

Query: Send back Haemophilus parainfluenzae growth AUC normalised to DMSO control of O=C(CCCN1CC=C(n2c(=O)[nH]c3ccccc32)CC1)c1ccc(F)cc1 [Droperidol] only.
Result: 0.995

Query: Lab note: Haemophilus parainfluenzae assay, enter growth AUC normalised to DMSO control for CC(C)NCC(O)c1ccc2ccccc2c1 (stereo not drawn) [Pronethalol hydrochloride] here
Result: 1

Query: Consider the compound CC(C)n1c(/C=C/C(O)CC(O)CC(=O)O)c(-c2ccc(F)cc2)c2ccccc21 (stereo not drawn) [Fluvastatin sodium salt] tested on Haemophilus parainfluenzae; state its growth AUC normalised to DMSO control.
Result: 1

Query: Recall the reported growth AUC normalised to DMSO control of O=C(CCCCC(=O)Nc1c(I)cc(I)c(C(=O)O)c1I)Nc1c(I)cc(I)c(C(=O)O)c1I [Iodipamide] on Haemophilus parainfluenzae and write it down.
Result: 1.01

Query: Determine reported growth AUC normalised to DMSO control for COc1ccccc1O [Guaiacol] ; test system: Haemophilus parainfluenzae.
Result: 0.998

Query: Print Haemophilus parainfluenzae growth AUC normalised to DMSO control for C=CC1=C(C(=O)O)N2C(=O)[C@@H](NC(=O)/C(=N\O)c3csc(N)n3)[C@H]2SC1 [Cefdinir] .
Result: 0.176

Query: Check Haemophilus parainfluenzae data and give growth AUC normalised to DMSO control for NC(=O)CN1CCCC1=O [Piracetam] .
Result: 0.975

Query: Answer with growth AUC normalised to DMSO control of CCN(CC)C(=O)/C(C#N)=C/c1cc(O)c(O)c([N+](=O)[O-])c1 [Entacapone] measured for Haemophilus parainfluenzae.
Result: 1.06

Query: Given CC(NCCc1ccc(O)cc1)C(O)c1ccc(O)cc1 (stereo not drawn) [Ritodrine hydrochloride] , report its growth AUC normalised to DMSO control on Haemophilus parainfluenzae.
Result: 1
